target: human activated blood coagulation factor X (Homo sapiens); test: Measurement of inhibitory activity for activated blood coagulation factor X (S-2222 chromogenic substrate); conditions: substrate S-2222, tris-NaCl buffer pH 8.4, 10 minutes at 37° C., absorbance 405 nm
Sequence (P00742 235-488 limits assumed): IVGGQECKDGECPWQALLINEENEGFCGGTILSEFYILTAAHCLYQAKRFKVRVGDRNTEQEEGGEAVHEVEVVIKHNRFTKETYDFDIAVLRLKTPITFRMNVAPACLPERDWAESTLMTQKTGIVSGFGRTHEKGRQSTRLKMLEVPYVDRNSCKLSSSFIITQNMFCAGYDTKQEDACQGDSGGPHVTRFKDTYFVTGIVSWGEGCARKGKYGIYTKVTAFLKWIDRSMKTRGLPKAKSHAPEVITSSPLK
Sequence (P00742 41-179 partner limits assumed): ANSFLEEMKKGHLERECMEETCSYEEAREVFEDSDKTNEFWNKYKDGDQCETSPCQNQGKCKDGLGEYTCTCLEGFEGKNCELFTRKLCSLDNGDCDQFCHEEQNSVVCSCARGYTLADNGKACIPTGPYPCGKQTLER
pIC50: −log10 of the molar value. Where a name gives a salt, the structure may show the parent alone.
observable: pIC50

a: CC(C)c1ccc(CCNS(=O)(=O)c2cc(C(=N)N)ccc2O)c(NCC(=O)O)c1
b: CS(=O)(=O)c1ccccc1-c1ccc(CCNS(=O)(=O)c2cc(C(=N)N)ccc2O)c(NCC(=O)O)c1 [Compound 17, hydrochloride]
Select the item whose pIC50 value is smaller, choosing between a and b . Returns: label corresponding to the selected item. a
(a: 7.11, b: 8.15)

====

biological target: human thrombin (Homo sapiens, UniProt P00734); construct: human thrombin (Sigma Chemical Company); purchased Sigma Chemical Company; experiment: Measurement of inhibitory activity for thrombin (S-2238 chromogenic substrate); assay type: biochemical; conditions: substrate S-2238, tris-NaCl buffer pH 8.4, 10 minutes at 37° C., absorbance 405 nm
Counter-ions that a name gives are not always drawn.
observable: IC50 (µM)
Please state the figure in µM; there is no need to write the unit.

Given the entry CS(=O)(=O)c1ccccc1-c1ccc(CCNS(=O)(=O)c2cc(C(=N)N)ccc2O)c(NCC(=O)O)c1 [Compound 17, hydrochloride] , report its measured IC50. 37
